# Activity values compiled below
Tested on: L1210
assay-remarks: Cell cycle arrest in L1210 cell line by accumulation at S phase at 5 uM after 21 hrs
Format: functional, Mus musculus
Field format: number, assumed %, no unit text.

Here's what some known entries look like.
>  <compound>
COc1cc2c(c3c1c(=O)c1cc4ccccc4cc1n3C)[C@@H](OC(C)=O)[C@@H](OC(C)=O)C(C)(C)O2 (racemic)

>  <Activity, %>
73

$$$$
>  <compound>
C=CCCC(=O)O[C@@H]1[C@H](OC(C)=O)c2c(cc(OC)c3c(=O)c4c5ccccc5ccc4n(C)c23)OC1(C)C (racemic)

>  <Activity, %>
78

$$$$
>  <compound>
C=CCCC(=O)O[C@@H]1[C@H](O)c2c(cc(OC)c3c(=O)c4c5ccccc5ccc4n(C)c23)OC1(C)C (racemic)

>  <Activity, %>
70

$$$$

For the next question, use this compound.
Endpoint output: Activity of CCC(=O)O[C@@H]1[C@H](O)c2c(cc(OC)c3c(=O)c4c5ccccc5ccc4n(C)c23)OC1(C)C (racemic) . Value?
69

This collection of values is drawn from ChEMBL document CHEMBL1148521.
